Reported IC50 (pM), blocking of Ba/F3 cell proliferation values for the following binders.
Target: T1, "Non-linked" human IL-23 (human p40 coexpressed in 293T cells with human p19:FLAG-tag peptide) (human, UniProt P29460 23-328)
T1 sequence 1: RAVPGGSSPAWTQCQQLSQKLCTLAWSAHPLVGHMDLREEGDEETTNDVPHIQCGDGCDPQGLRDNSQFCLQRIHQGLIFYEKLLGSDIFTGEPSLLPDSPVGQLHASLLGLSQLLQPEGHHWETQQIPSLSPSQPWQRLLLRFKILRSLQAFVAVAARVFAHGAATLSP
T1 sequence 2: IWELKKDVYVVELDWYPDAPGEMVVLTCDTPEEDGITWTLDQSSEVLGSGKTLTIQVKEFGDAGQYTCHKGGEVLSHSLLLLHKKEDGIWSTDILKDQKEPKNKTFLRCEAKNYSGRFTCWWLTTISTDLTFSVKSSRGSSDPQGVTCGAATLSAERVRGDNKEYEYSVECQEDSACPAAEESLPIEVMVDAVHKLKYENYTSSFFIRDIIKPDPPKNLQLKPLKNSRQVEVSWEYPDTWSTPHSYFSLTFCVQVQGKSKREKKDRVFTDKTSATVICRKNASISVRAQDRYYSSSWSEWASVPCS
Experiment: cell-based or functional assay
Endpoint Name: IC50 (pM), blocking of Ba/F3 cell proliferation

- Binder: "mouse anti-human IL-23p19 antibody 17G8 (antibody, V domains shown) VH: QAQLQQSGSELARPGASVKLSCKASGYTFTSYGIKWVKQRTGQGLEWIGEIFPRSGQTIYNENFKGKATLTADKSSSTAYMELRSLTSEDSAVYFCAANWDLDYWGQGTILTVSS VL: DIMMTQSPATLSVTPGDRVSLSCRASQSISDYLHWYRQKSHESPRLLIKYASQSISGIPSRFSGSGSGSDFTLSINSVEPEDVGIYYCQNGHSFPYTFGGGTKLEIKR"
  Test Result: 3
- Binder: "mouse anti-human IL-23p19 antibody 20H7 (antibody, V domains shown) VH: QAQLQQSGGELARPGASVKLSCKASGYTFTNYGIKWVKQRTGQGLEWIGEIFPRSGQTIYNEKFKGKATLTADKSSSTAYMELRSLTFEDSAVYFCAANWDLDYWGQGTILTVSS VL: DIMMTQSPATLSVTPGDRVSLSCRASQSISDYLHWYRQKSHESPRLLIKYASQSISGIPSRFSGSGSGSDFTLSINSVEPEDVGVYFCQNGHSFPYTFGGGTKLEIKR"
  Test Result: 3
- Binder: "mouse anti-human IL-23p19 antibody 6H12 (antibody, V domains shown, also called m6H12) VH: EVHLQQSGPELVKPGASVKMSCKASGYTFNRYLIHWVKQKPGQGLEWIGYINPNNDGTNYNEKFKGKATLTSDKSSSTAYMELSSLTSEDSAVYYCAANWDQAYWGQGTLVTVSA VL: DIVMTQSPATLSVTPGDRVSLSCRASQSISDYLHWYQQKSHESPRLLIKYTSQSISGIPSRFSGSGSGSDFTLSINSVEPEDVGVYYCQNGHSFPFTFGSGTKLEIKR"
  Test Result: 1500
- Binder: "mouse anti-human IL-23p19 antibody 1D6 (antibody, V domains shown) VH: EVQLQQSGPDLVKPGASVKMSCKASGYTFTAYLIHWVKRSHGKSLDWIGYINPNDGVTSYNQKFKGKATLTVNKSSGTAYMELRSLTSEDAAVYYCTLNWDLDYWGQGTTLTVSS VL: DIVMTQSPATLSVTPGDRVSLSCRASQSISDYLHWYQQKSHESPRLLIKYASQSISGIPSRFSGSGSGSDFTLSITNVEPEDVGIYYCQNGHSFPFTFGSGTKLEIKR"
  Test Result: 16
